Source: patent US20190248900A1

biological target: T1, M2; test: scFv-phage ELISA
T1 construct: also called PD1 mutant M2
Param threshold (0.4) applies to OD490; output label 1 when value >= threshold, label 0 when value < threshold.

Worked examples, 4 binders total:
>  <binder>
PD1-48A9 (antibody, V domains shown, scFv-phage in the screening ELISA; whole IgG in the other assays) VH: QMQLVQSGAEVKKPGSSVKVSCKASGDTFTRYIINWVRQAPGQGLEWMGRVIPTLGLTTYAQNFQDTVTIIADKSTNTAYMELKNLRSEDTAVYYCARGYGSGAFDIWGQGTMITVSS VL: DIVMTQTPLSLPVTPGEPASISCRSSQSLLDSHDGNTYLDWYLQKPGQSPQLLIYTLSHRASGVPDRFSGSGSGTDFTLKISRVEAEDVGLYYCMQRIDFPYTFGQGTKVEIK

>  <category>
label 0

$$$$
>  <binder>
PD1-32A6 (antibody, V domains shown, scFv-phage in the screening ELISA; later whole IgG) VH: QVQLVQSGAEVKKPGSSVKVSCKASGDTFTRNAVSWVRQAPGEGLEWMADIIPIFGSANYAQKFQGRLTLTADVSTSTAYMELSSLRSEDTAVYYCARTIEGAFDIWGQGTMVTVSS VL: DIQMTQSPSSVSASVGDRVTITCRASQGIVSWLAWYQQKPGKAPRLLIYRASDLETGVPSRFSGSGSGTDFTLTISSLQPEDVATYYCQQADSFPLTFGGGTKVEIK

>  <category>
label 1

$$$$
>  <binder>
PD1-49B9 (antibody, V domains shown, scFv-phage in the screening ELISA; later whole IgG) VH: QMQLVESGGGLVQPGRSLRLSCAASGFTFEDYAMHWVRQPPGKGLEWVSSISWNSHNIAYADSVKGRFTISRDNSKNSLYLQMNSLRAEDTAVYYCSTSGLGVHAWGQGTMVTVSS VL: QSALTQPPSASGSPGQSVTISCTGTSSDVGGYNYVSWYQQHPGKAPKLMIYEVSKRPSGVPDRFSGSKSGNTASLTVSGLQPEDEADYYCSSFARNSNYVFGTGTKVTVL

>  <category>
label 1

$$$$
>  <binder>
PD1-51D9 (antibody, V domains shown, scFv-phage in the screening ELISA; whole IgG in the other assays) VH: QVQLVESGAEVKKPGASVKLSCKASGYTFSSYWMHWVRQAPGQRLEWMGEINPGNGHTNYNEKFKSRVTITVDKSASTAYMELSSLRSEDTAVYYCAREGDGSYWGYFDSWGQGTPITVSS VL: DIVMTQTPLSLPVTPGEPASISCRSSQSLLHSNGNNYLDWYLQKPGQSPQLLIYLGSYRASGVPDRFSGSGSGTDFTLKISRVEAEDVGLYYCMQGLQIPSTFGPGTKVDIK

>  <category>
label 0

$$$$

Check the entry PD1-29H3 (antibody, V domains shown, scFv-phage in the screening ELISA; later whole IgG) VH: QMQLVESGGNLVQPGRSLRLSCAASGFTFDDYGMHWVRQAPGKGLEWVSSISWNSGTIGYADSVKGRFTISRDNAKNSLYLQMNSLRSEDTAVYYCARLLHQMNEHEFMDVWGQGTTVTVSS VL: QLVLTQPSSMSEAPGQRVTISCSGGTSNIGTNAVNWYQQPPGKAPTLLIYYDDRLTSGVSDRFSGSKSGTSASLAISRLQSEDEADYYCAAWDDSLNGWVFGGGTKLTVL : does OD490 equal or exceed 0.4?
label 1
